The entries that follow carry IC50 values tested on JNK1α1 (Homo sapiens, UniProt P45983), drawn from several published reports.

Would you please look over these solved cases?
CC(=O)c1cnc(NC(C)(C)C(F)(F)F)nc1N[C@@H]1CC[C@@H](C)[C@H](O)C1 : 0.5 to 1 µM
COc1cccc(C(=O)c2c[nH]c3ncc(-c4cccnc4)cc23)c1F : ≤ 10 µM
CC(C)(C)Nc1ncc(C(N)=O)c(N2CCCC(CO)C2)n1 (centres unmarked) : 0.1 to 0.5 µM

Request the reported IC50 associated with O=C(NCc1ccccc1)Nc1cccc(C(=O)c2c[nH]c3ncc(Br)cc23)c1
≤ 10 µM

// same read-out, input: CS(=O)(=O)C[C@H]1CC[C@H](Nc2nccc(-n3ccc4c(N5CCN(C(=O)CC#N)CC5)cccc43)n2)CC1
0.0024 µM

---

Literature compilation of IC50 measurements on JNK1α1 (Homo sapiens, UniProt P45983).

Some compounds with recorded IC50:
CCCC(=O)Nc1ccc(F)c(Cc2c[nH]c3ncc(-c4cccc(C(N)=O)c4)cc23)c1F : ≤ 10000 nM
CS(=O)(=O)C1CCN(c2cccc3c2cnn3-c2ccnc(N[C@H]3CC[C@H](O)CC3)n2)CC1 : 5.8 nM
O=C(Cn1c(=O)ccc2cc(F)ccc21)Nc1scc(Br)c1-c1ncn[nH]1 : < 100 nM
Nc1cccc(-c2cnc3[nH]cc(C(=O)c4cccc(O)c4)c3c2)c1 : ≤ 10000 nM
Oc1cccc(Cc2c[nH]c3ncc(-c4cccs4)cc23)c1F : ≤ 10000 nM

Please give the measured IC50 for this compound: Cc1csc(NC(=O)CN2C(=O)CCc3ccccc32)c1-c1ncn[nH]1
< 100 nM

What about this compound? CC(C)(C)Nc1ncc(C(N)=O)c(NC2CCCN(C(=O)CC(=O)O)C2)n1 (stereo not drawn)
> 1000 nM

Then what about the compound O=C(Cn1c(=O)ccc2cnccc21)Nc1scc(Br)c1-c1ncn[nH]1 ?
< 100 nM

Quick one: O=C(c1cc(O)ccc1F)c1c[nH]c2ncc(-c3ccccc3)cc12
≤ 10000 nM

---

pIC50: −log10 of the molar value.
Below: compounds with pIC50 recorded for UniProt P45983 in separate published works.

CCCS(=O)(=O)Nc1ccc(F)c(C(=O)c2c[nH]c3ncc(OCCOC)cc23)c1F : ≥ 5.00

Request: pIC50, test system UniProt P45983, entry C[C@@H]1CC[C@@H](Nc2nc(NC(C)(C)C)ncc2C(=N)N)C[C@H]1O
6.00 to 6.30

And for COc1ccccc1Nc1cc2cnn(-c3csc(C(=O)NC4COC4)c3)c2cc1F ?
< 6.00

Try this compound too: Cn1cnc(-c2c(Cl)csc2NC(=O)Cn2c(=O)ccn3nccc23)n1
> 7.00

Try Cc1c(O)cccc1C(=O)c1c[nH]c2ncc(-c3cccs3)cc12 next.
≥ 5.00

Also CS(=O)(=O)N[C@H]1CC[C@H](Nc2nccc(-c3cnc4c(OCc5ccccc5)cccn34)n2)CC1 ?
7.63

Now try O=C(CN1C(=O)CCc2ncccc21)Nc1scc(Cl)c1-c1nccs1 .
> 7.00

Next entry: CC(=O)N1CCN(c2cccc3c2c(C(N)=O)cn3-c2ccnc(N[C@H]3CC[C@H](O)CC3)n2)CC1
7.91

Could you do the same for O=C(Cn1c(=O)ccc2cc(F)c(F)cc21)Nc1sccc1-c1ncon1 , please?
> 7.00

What do you get for O=C([C@H]1CC[C@H](Nc2nccc(-n3nnc4c(-c5ccoc5)cccc43)n2)CC1)N1CCC(O)CC1 ?
7.40

// next record C[C@@H]1CC[C@@H](Nc2cc(NC3CC3)ncc2C(N)=O)C[C@H]1O
< 6.00
